Reported LC50 values are given for each entry in this list.
System: MCF7
Test: Cytotoxicity against human MCF7 cells after 72 hrs by MTT assay
Type: functional
Details: MCF7, 72 h

// LC50 value for C[Se]/C(=N\C(=O)c1cc(-c2ccccc2)nc2ccccc12)NC(=O)c1cc(-c2ccccc2)nc2ccccc12 : > 100 µM

----------
Tested on: MCF7
Test: Cytotoxicity against human MCF7 cells after 72 hrs by MTT assay
Type: functional
Conditions: MCF7, 72 h
Reported LC50 values are given for each entry in this list.
Your answer should be a plain number; it is taken to be in µM.

// LC50 value for O=C(/N=C(/NC(=O)c1csc([N+](=O)[O-])c1)[Se]Cc1ccccc1)c1csc([N+](=O)[O-])c1 : 83.8

// LC50 value for C[Se]/C(=N\C(=O)c1cc2ccccc2s1)NC(=O)c1cc2ccccc2s1 : 80.6

// LC50 value for C[Se]/C(=N\C(=O)c1cnc2ccccc2c1)NC(=O)c1cnc2ccccc2c1 : 60.7

Here is another compound to look at.
// LC50 value for CS/C(=N\C(=O)c1ccc2c(c1)OCO2)NC(=O)c1ccc2c(c1)OCO2 : 94.8
